The following compounds are shown together with reported Turbidity Delta values.
Assay: Simulating experiments: Pip-Taz powder incubated with potential impurities in glass vials, turbidity after reconstitution
Type: physicochemical
Conditions: Drug & Chemicals minus Chemical only; 40° C. for 3 weeks
Description: In order to mimic and evaluate the impact of Ti, Al, Sn, Ni, Mg, Cr, and Si containing impurities on the turbidity of piperacillin and tazobactam formation, the following simulating experiments were carried out (reference 6.7, Notebook BB5254/125, 134, 140-141, 145-146). Powders of piperacillin and tazobactam were mixed with different potential impurities in glass vials and incubated at 40° C. for 3 weeks. […] [table]
Could you respond with only the numeric value?

Below, each entry is followed by its recorded Turbidity Delta result.
O.O.O.O.O.O.[Cl][Cr]([Cl])[Cl] [chromium (Ill) chloride hexahydrate] = 15.42
CC(=O)[O-].CC(=O)[O-].[Fe+2] [iron(ll) acetate] = 89.10
CC(=O)/C=C(/C)[O-].CC(=O)/C=C(/C)[O-].[O]=[Ti+2] [titanium (IV) oxyacetylacetonate] = 173.89

Please turn your attention to the following entry.
Using known records, supply Turbidity Delta for O[Si](O)(O)C1CCCCC1 [Cyclohexyl-dihydroxyl-hydroxylsilane]
17.66

----------
Experiment: Simulating experiments: Pip-Taz powder incubated with potential impurities in glass vials, turbidity after reconstitution
Format: physicochemical
Details: 40° C. for 3 weeks; chemical without drug; 0.9% NaCl
property-label: Turbidity, Chemical only (~100 ppm)
Could you respond with only the numeric value?

Below, each entry is followed by its recorded Turbidity, Chemical only (~100 ppm) result.
CC(=O)[O-].CC(=O)[O-].[Fe+2] [iron(ll) acetate] = 9.66
O[Si](O)(O)C1CCCCC1 [Cyclohexyl-dihydroxyl-hydroxylsilane] = 0.54
O.O.O.O.O.O.[Cl][Cr]([Cl])[Cl] [chromium (Ill) chloride hexahydrate] = 0.18

Using known records, supply Turbidity, Chemical only (~100 ppm) for CC(=O)/C=C(/C)[O-].CC(=O)/C=C(/C)[O-].[O]=[Ti+2] [titanium (IV) oxyacetylacetonate]
5.44

----------
Experiment: Simulating experiments: Pip-Taz powder incubated with potential impurities in glass vials, turbidity after reconstitution
Assay type: physicochemical
Details: 40° C. for 3 weeks in glass vial; 0.3 g Pip-Taz with 1-2 mg chemical; reconstituted in 12 mL 0.9% NaCl
property-label: Turbidity, Drug & Chemicals (Target Mole Ratio = 100:1, ~100 ppm for chemicals)
Could you respond with only the numeric value?

Below, each entry is followed by its recorded Turbidity, Drug & Chemicals (Target Mole Ratio = 100:1, ~100 ppm for chemicals) result.
O[Si](O)(O)C1CCCCC1 [Cyclohexyl-dihydroxyl-hydroxylsilane] = 18.20
CC(=O)/C=C(/C)[O-].CC(=O)/C=C(/C)[O-].[O]=[Ti+2] [titanium (IV) oxyacetylacetonate] = 179.33
CC(=O)[O-].CC(=O)[O-].[Fe+2] [iron(ll) acetate] = 98.77

Please turn your attention to the following entry.
Using known records, supply Turbidity, Drug & Chemicals (Target Mole Ratio = 100:1, ~100 ppm for chemicals) for O.O.O.O.O.O.[Cl][Cr]([Cl])[Cl] [chromium (Ill) chloride hexahydrate]
15.60
